Where do these numbers come from? They come from PubChem BioAssay AID1963836.

Tested on: 857933-349-R-J2-PDC complex spheroid viability
Test: Anticancer human tumor 857933-349-R-J2-PDC patient-derived colon adenocarcinoma cell line growth inhibition [POLQ]
Conditions: second compound 1 µM; first compound 0.0316 µM; stronger effect = lower value
Give viability, T/C for every item shown.
// return numeric value only (unit: %, not printed)

Qu. Query viability, T/C on 857933-349-R-J2-PDC complex spheroid viability for O=c1[nH]cc(F)c(=O)[nH]1 + Cc1cccc(N(C)C(=O)C2C(O)CCN2c2nc(C)cc(C(F)(F)F)c2C#N)c1
Ans. 94.3

Qu. Query viability, T/C on 857933-349-R-J2-PDC complex spheroid viability for CCc1cc2c(N3CCc4c(cc(Cn5ccnc5)cc4-c4cn(C)nc4C(F)(F)F)C3=O)cc(C)nc2c(OC)n1 + COC1C(OC(N)=O)C(O)C(Oc2ccc3c(O)c(NC(=O)c4ccc(O)c(CC=C(C)C)c4)c(=O)oc3c2C)OC1(C)C
Ans. 102

Qu. Query viability, T/C on 857933-349-R-J2-PDC complex spheroid viability for C=CC(=O)N1CCN(c2nc(=O)n(-c3c(C)ccnc3C(C)C)c3nc(-c4c(O)cccc4F)c(F)cc23)C(C)C1 (stereo not given) + Nc1ccc(C#CCN(C(=O)Cc2ncc(C(F)(F)F)cc2C(F)(F)F)c2ccc(F)cc2)nn1
Ans. 111

Qu. Query viability, T/C on 857933-349-R-J2-PDC complex spheroid viability for CC1COCCN1c1cc(C2(O)CC3CCC(C2)O3)c2cnn(-c3ccn[nH]3)c2n1 (stereo not given) + COC1C(OC(N)=O)C(O)C(Oc2ccc3c(O)c(NC(=O)c4ccc(O)c(CC=C(C)C)c4)c(=O)oc3c2C)OC1(C)C
Ans. 94.3

Qu. Query viability, T/C on 857933-349-R-J2-PDC complex spheroid viability for CCCS(=O)(=O)Nc1ccc(F)c(C(=O)c2c[nH]c3ncc(-c4ccc(Cl)cc4)cc23)c1F + Cc1cccc(N(C)C(=O)C2C(O)CCN2c2nc(C)cc(C(F)(F)F)c2C#N)c1
Ans. 95.6

###

Give IC50 for every item shown.
System: 857933-349-R-J2-PDC complex spheroid viability
Assay: Anticancer human tumor 857933-349-R-J2-PDC cell line growth inhibition [POLQ];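 note: spheroids exposed to compounds for seven days before readout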
Settings: curve of first compound; second compound 1 µM

Qu. Query IC50 on 857933-349-R-J2-PDC complex spheroid viability for Cn1ncnc1[C@H]1c2n[nH]c(=O)c3cc(F)cc(c23)N[C@@H]1c1ccc(F)cc1 + Nc1ccc(C#CCN(C(=O)Cc2ncc(C(F)(F)F)cc2C(F)(F)F)c2ccc(F)cc2)nn1
Ans. > 0.1 µM

Qu. Query IC50 on 857933-349-R-J2-PDC complex spheroid viability for C#Cc1c(F)ccc2cc(O)cc(-c3ncc4c(N5CC6CCC(C5)N6)nc(OCC56CCCN5CC(F)C6)nc4c3F)c12 (stereo unspecified) + COC1C(OC(N)=O)C(O)C(Oc2ccc3c(O)c(NC(=O)c4ccc(O)c(CC=C(C)C)c4)c(=O)oc3c2C)OC1(C)C
Ans. > 10 µM

Qu. Query IC50 on 857933-349-R-J2-PDC complex spheroid viability for C=CC(=O)N1CCN(c2nc(=O)n(-c3c(C)ccnc3C(C)C)c3nc(-c4c(O)cccc4F)c(F)cc23)C(C)C1 (stereo unspecified) + COC1C(OC(N)=O)C(O)C(Oc2ccc3c(O)c(NC(=O)c4ccc(O)c(CC=C(C)C)c4)c(=O)oc3c2C)OC1(C)C
Ans. > 10 µM

Qu. Query IC50 on 857933-349-R-J2-PDC complex spheroid viability for CC(C)n1c(=O)n(C)c2cnc3cc(F)c(-c4ccc(OCCCN5CCCCC5)nc4)cc3c21 + Cc1cccc(N(C)C(=O)C2C(O)CCN2c2nc(C)cc(C(F)(F)F)c2C#N)c1
Ans. > 10 µM

Qu. Query IC50 on 857933-349-R-J2-PDC complex spheroid viability for CC(C)n1c(=O)n(C)c2cnc3cc(F)c(-c4ccc(OCCCN5CCCCC5)nc4)cc3c21 + COC1C(OC(N)=O)C(O)C(Oc2ccc3c(O)c(NC(=O)c4ccc(O)c(CC=C(C)C)c4)c(=O)oc3c2C)OC1(C)C
Ans. > 10 µM

Qu. Query IC50 on 857933-349-R-J2-PDC complex spheroid viability for C#Cc1c(F)ccc2cc(O)cc(-c3ncc4c(N5CC6CCC(C5)N6)nc(OCC56CCCN5CC(F)C6)nc4c3F)c12 (stereo unspecified) + Cc1cccc(N(C)C(=O)C2C(O)CCN2c2nc(C)cc(C(F)(F)F)c2C#N)c1
Ans. > 10 µM

###

System: 857933-349-R-J2-PDC complex spheroid viability
Experiment: Anticancer human tumor 857933-349-R-J2-PDC cell line growth inhibition [POLQ];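 note: spheroids exposed to compounds for seven days before readout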
Details: curve of first compound; second compound 0.316 µM
pIC50: −log10 of the molar value.
quantity: pIC50

Qu. Query pIC50 on 857933-349-R-J2-PDC complex spheroid viability for C=CC(=O)N1CCN(c2nc(=O)n(-c3c(C)ccnc3C(C)C)c3nc(-c4c(O)cccc4F)c(F)cc23)C(C)C1 (stereo unspecified) + Nc1ccc(C#CCN(C(=O)Cc2ncc(C(F)(F)F)cc2C(F)(F)F)c2ccc(F)cc2)nn1
Ans. < 5.00

Qu. Query pIC50 on 857933-349-R-J2-PDC complex spheroid viability for C#Cc1c(F)ccc2cc(O)cc(-c3ncc4c(N5CC6CCC(C5)N6)nc(OCC56CCCN5CC(F)C6)nc4c3F)c12 (stereo unspecified) + Cc1cccc(N(C)C(=O)C2C(O)CCN2c2nc(C)cc(C(F)(F)F)c2C#N)c1
Ans. < 5.00

Qu. Query pIC50 on 857933-349-R-J2-PDC complex spheroid viability for CCc1cc2c(N3CCc4c(cc(Cn5ccnc5)cc4-c4cn(C)nc4C(F)(F)F)C3=O)cc(C)nc2c(OC)n1 + Nc1ccc(C#CCN(C(=O)Cc2ncc(C(F)(F)F)cc2C(F)(F)F)c2ccc(F)cc2)nn1
Ans. < 5.00

Qu. Query pIC50 on 857933-349-R-J2-PDC complex spheroid viability for Cn1ncnc1[C@H]1c2n[nH]c(=O)c3cc(F)cc(c23)N[C@@H]1c1ccc(F)cc1 + Nc1ccc(C#CCN(C(=O)Cc2ncc(C(F)(F)F)cc2C(F)(F)F)c2ccc(F)cc2)nn1
Ans. < 7.00

Qu. Query pIC50 on 857933-349-R-J2-PDC complex spheroid viability for C#Cc1c(F)ccc2cc(O)cc(-c3ncc4c(N5CC6CCC(C5)N6)nc(OCC56CCCN5CC(F)C6)nc4c3F)c12 (stereo unspecified) + Nc1ccc(C#CCN(C(=O)Cc2ncc(C(F)(F)F)cc2C(F)(F)F)c2ccc(F)cc2)nn1
Ans. < 5.00

Qu. Query pIC50 on 857933-349-R-J2-PDC complex spheroid viability for O=C(Nc1ccc(O)c(NS(=O)(=O)c2ccc(F)cc2)c1)c1ccc(-c2ccccc2)cc1 + Nc1ccc(C#CCN(C(=O)Cc2ncc(C(F)(F)F)cc2C(F)(F)F)c2ccc(F)cc2)nn1
Ans. < 5.00

###

System: 857933-349-R-J2-PDC complex spheroid viability
Experiment: Anticancer human tumor 857933-349-R-J2-PDC cell line growth inhibition [POLQ];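 note: spheroids exposed to compounds for seven days before readout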
Conditions: second compound 3.16 µM; first compound 0.1 µM; stronger effect = lower value
quantity: viability, T/C (%)
// return numeric value only (unit: %, not printed)

Qu. Which viability, T/C value is on record for O=C(c1cc(Cc2n[nH]c(=O)c3ccccc23)ccc1F)N1CCN(C(=O)C2CC2)CC1 + COC1C(OC(N)=O)C(O)C(Oc2ccc3c(O)c(NC(=O)c4ccc(O)c(CC=C(C)C)c4)c(=O)oc3c2C)OC1(C)C ?
Ans. 96.8

Qu. Which viability, T/C value is on record for C#Cc1c(F)ccc2cc(O)cc(-c3ncc4c(N5CC6CCC(C5)N6)nc(OCC56CCCN5CC(F)C6)nc4c3F)c12 (stereo not drawn) + Nc1ccc(C#CCN(C(=O)Cc2ncc(C(F)(F)F)cc2C(F)(F)F)c2ccc(F)cc2)nn1 ?
Ans. 86.8

Qu. Which viability, T/C value is on record for CCc1cc2c(N3CCc4c(cc(Cn5ccnc5)cc4-c4cn(C)nc4C(F)(F)F)C3=O)cc(C)nc2c(OC)n1 + Nc1ccc(C#CCN(C(=O)Cc2ncc(C(F)(F)F)cc2C(F)(F)F)c2ccc(F)cc2)nn1 ?
Ans. 87

###

Test system: 857933-349-R-J2-PDC complex spheroid viability
Experiment: Anticancer human tumor 857933-349-R-J2-PDC cell line growth inhibition [POLQ];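 note: spheroids exposed to compounds for seven days before readout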
Settings: second compound 3.16 µM; first compound 10 µM; stronger effect = lower value
Give viability, T/C for every item shown.
// return numeric value only (unit: %, not printed)

Qu. Which viability, T/C value is on record for COc1ccc([C@@H](O)c2cc(-c3ncnc4cc(N5CCOCC5)ccc34)c(F)cc2Cl)nn1 + Nc1ccc(C#CCN(C(=O)Cc2ncc(C(F)(F)F)cc2C(F)(F)F)c2ccc(F)cc2)nn1 ?
Ans. 60

Qu. Which viability, T/C value is on record for CC1COCCN1c1cc(C2(S(C)(=N)=O)CC2)nc(-c2ccnc3[nH]ccc23)n1 (stereo not given) + Cc1cccc(N(C)C(=O)C2C(O)CCN2c2nc(C)cc(C(F)(F)F)c2C#N)c1 ?
Ans. 45.8

Qu. Which viability, T/C value is on record for CCCS(=O)(=O)Nc1ccc(F)c(C(=O)c2c[nH]c3ncc(-c4ccc(Cl)cc4)cc23)c1F + Nc1ccc(C#CCN(C(=O)Cc2ncc(C(F)(F)F)cc2C(F)(F)F)c2ccc(F)cc2)nn1 ?
Ans. 23.3

Qu. Which viability, T/C value is on record for CC(C)n1c(=O)n(C)c2cnc3cc(F)c(-c4ccc(OCCCN5CCCCC5)nc4)cc3c21 + Nc1ccc(C#CCN(C(=O)Cc2ncc(C(F)(F)F)cc2C(F)(F)F)c2ccc(F)cc2)nn1 ?
Ans. 91.5

Qu. Which viability, T/C value is on record for CNCc1ccc(-c2[nH]c3cc(F)cc4c3c2CCNC4=O)cc1 + Cc1cccc(N(C)C(=O)C2C(O)CCN2c2nc(C)cc(C(F)(F)F)c2C#N)c1 ?
Ans. 80.5

Qu. Which viability, T/C value is on record for Nc1ccn(C2OC(CO)C(O)C2(F)F)c(=O)n1 (stereo not given) + Cc1cccc(N(C)C(=O)C2C(O)CCN2c2nc(C)cc(C(F)(F)F)c2C#N)c1 ?
Ans. 10.3

Qu. Which viability, T/C value is on record for C#Cc1c(F)ccc2cc(O)cc(-c3ncc4c(N5CC6CCC(C5)N6)nc(OCC56CCCN5CC(F)C6)nc4c3F)c12 (stereo not given) + Cc1cccc(N(C)C(=O)C2C(O)CCN2c2nc(C)cc(C(F)(F)F)c2C#N)c1 ?
Ans. 84.2

Qu. Which viability, T/C value is on record for CCc1cc2c(N3CCc4c(cc(Cn5ccnc5)cc4-c4cn(C)nc4C(F)(F)F)C3=O)ccnc2c(OC)n1 + Nc1ccc(C#CCN(C(=O)Cc2ncc(C(F)(F)F)cc2C(F)(F)F)c2ccc(F)cc2)nn1 ?
Ans. 62.8

Qu. Which viability, T/C value is on record for CCc1cc2c(N3CCc4c(cc(Cn5ccnc5)cc4-c4cn(C)nc4C(F)(F)F)C3=O)cc(C)nc2c(OC)n1 + Cc1cccc(N(C)C(=O)C2C(O)CCN2c2nc(C)cc(C(F)(F)F)c2C#N)c1 ?
Ans. 55.1

Qu. Which viability, T/C value is on record for CC1COCCN1c1cc(C2(S(C)(=N)=O)CC2)nc(-c2ccnc3[nH]ccc23)n1 (stereo not given) + Nc1ccc(C#CCN(C(=O)Cc2ncc(C(F)(F)F)cc2C(F)(F)F)c2ccc(F)cc2)nn1 ?
Ans. 45.4
